Target: chimeric human RORγ-Gal4 receptor (Homo sapiens)
Sequence (P51449 269-508 limits assumed, change not shown): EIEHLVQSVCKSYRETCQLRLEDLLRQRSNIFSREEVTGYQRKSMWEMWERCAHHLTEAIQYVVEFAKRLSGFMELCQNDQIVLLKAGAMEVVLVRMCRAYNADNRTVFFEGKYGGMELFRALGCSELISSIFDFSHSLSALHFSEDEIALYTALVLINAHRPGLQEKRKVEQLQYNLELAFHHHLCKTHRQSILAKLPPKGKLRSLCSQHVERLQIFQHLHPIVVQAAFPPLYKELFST
Protocol: transient transactivation assay (RORγ-Gal4 luciferase reporter)
Format: cell-based
Applied conditions: Cos-7 cells transfected with RORγ-Gal4 and 5Gal4 pGL3 TK Luc reporter; overnight incubation; T0901317 at 10^-5 M as reference; read-out: IC50
pIC50: −log10 of the molar value.
# pIC50 values compiled below
Measurement kind: pIC50

1. CSc1ccc2c(ccn2Cc2c(Cl)ccc(C(=O)N3CCC(CC(=O)O)CC3)c2Cl)c1 [EI-2]; > 7.00
2. Cc1cc(OC(F)(F)F)cc2c1c(Cc1c(Cl)ccc(C(=O)N3CCC(C(=O)O)CC3)c1Cl)cn2C [DU]; > 7.00
3. Cc1cc(C(F)(F)F)cc2c1nc(Cc1c(Cl)ccc(C(=O)N3CCC(CC(C)O)CC3)c1Cl)n2C (stereo not shown) [BJ-19]; 6.30 to 7.00
4. CCN(CCO)Cc1ccc(Cl)c(Cc2nc3c(C)cc(C(F)(F)F)cc3n2C)c1Cl [BW-18]; 6.00 to 6.30
5. Cc1cc(C(F)(F)F)cc2c1c(Cc1c(Cl)ccc(C(=O)N3CCC(CC(=O)O)CC3)c1Cl)nn2C [EE]; > 7.00
6. Cc1cc(C#N)cc2c1cc(Cc1c(Cl)cnc(C(=O)N3CCN(C4COC4)CC3)c1Cl)n2C [BF-4]; 6.30 to 7.00
7. Cc1cc(C(F)(F)F)nn2c(C)c(Cc3c(Cl)ccc(C(=O)N4CCOCC4)c3Cl)nc12 [CZ]; > 7.00
8. Cc1cc(C(F)(F)F)cc2c1nc(Cc1c(Cl)ccc(CN3CCOCC3)c1Cl)n2C [BW-10]; 6.30 to 7.00
9. Cc1cc(OC(F)(F)F)cc2c1c(Cc1c(Cl)ccc(C(=O)N3CCC(CC(=O)O)CC3)c1Cl)cn2C [DU1-1]; > 7.00
10. Cn1c(Cc2c(Cl)ccc(C(=O)N3CCN(C4CC(C(=O)O)C4)CC3)c2Cl)cc2ccc(C(F)(F)F)cc21 (stereo not shown) [O]; 6.30 to 7.00
11. Cc1cc(C(F)(F)F)cc2c1cc(Cc1c(Cl)ccc(C(=O)N3CCC(C(C)C(=O)O)CC3)c1Cl)n2C (stereo not shown) [Example B-19]; > 7.00
12. Cn1c(Cc2c(Cl)ccc(C(=O)N3CCOCC3)c2Cl)cc2cc(C#N)ccc21 [Example AB]; 6.30 to 7.00
13. Cc1cc(C(F)(F)F)cc2c1cc(Cc1c(Cl)ccc(C(=O)N3CCC(C(=O)O)C3)c1Cl)n2C (stereo not shown) [Example B-3]; 6.30 to 7.00
14. Cc1cn(Cc2c(Cl)ncc(C(=O)N3CCC(CC(=O)O)CC3)c2Cl)c2c(C)cc(C(F)(F)F)cc12 [ER]; > 7.00
15. Cc1cc(C(F)(F)F)cn2c(C)c(Cc3c(Cl)ccc(C(=O)N4CCC(CCO)CC4)c3Cl)nc12 [CT-2]; 6.30 to 7.00
16. O=C(O)CC1CCN(C(=O)c2ccc(Cl)c(Cn3ccc4c(C(F)(F)F)cccc43)c2Cl)CC1 [EI-7]; > 7.00
